Biological target: mouse TMEM16A mutant G510P (Mus musculus, UniProt Q8BHY3, G510P)
Construct: expressed in transfected cells; host or cells: HEK293T
Sequence (Q8BHY3 1-960 G510P): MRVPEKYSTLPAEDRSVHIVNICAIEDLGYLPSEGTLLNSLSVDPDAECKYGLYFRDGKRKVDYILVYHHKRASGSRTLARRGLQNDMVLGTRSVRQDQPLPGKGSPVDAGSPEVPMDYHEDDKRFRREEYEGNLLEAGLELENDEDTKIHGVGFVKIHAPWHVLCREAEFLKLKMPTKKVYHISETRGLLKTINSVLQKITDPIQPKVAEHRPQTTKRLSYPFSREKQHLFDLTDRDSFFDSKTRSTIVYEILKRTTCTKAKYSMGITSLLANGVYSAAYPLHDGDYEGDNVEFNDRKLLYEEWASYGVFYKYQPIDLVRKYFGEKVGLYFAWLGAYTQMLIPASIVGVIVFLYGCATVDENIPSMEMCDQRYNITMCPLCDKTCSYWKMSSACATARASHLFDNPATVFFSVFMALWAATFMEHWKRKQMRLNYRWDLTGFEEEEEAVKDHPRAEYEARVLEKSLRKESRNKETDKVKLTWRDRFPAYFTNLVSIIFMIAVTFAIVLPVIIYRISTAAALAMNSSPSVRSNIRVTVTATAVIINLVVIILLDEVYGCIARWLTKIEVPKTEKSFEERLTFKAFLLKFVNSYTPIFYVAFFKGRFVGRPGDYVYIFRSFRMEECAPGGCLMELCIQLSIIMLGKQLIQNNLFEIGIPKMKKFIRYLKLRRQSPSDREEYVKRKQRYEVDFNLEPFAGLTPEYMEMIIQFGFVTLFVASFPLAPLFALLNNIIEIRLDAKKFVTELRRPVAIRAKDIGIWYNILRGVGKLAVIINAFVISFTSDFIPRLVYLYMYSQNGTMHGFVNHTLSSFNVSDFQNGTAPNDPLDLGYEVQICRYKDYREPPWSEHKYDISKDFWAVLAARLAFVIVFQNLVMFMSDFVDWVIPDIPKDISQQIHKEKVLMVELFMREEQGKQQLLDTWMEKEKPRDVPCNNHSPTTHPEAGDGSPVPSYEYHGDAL
Experiment: Inside-out patch recording of 1PBC block, mutant G510P
Format: cell-based
Details: G510P; V -40 mV
pIC50: −log10 of the molar value.
MEASURED PARAMETER: pIC50

| COMPOUND | MEASURED PARAMETER | VALUE |
| --- | --- | --- |
| N#Cc1c(C(F)(F)F)cc(O)n2c1nc1ccccc12 [1PBC] | pIC50 | 4.12 |
